testProtocol: Half-life period of compound was measured in rat plasma.
Type: ADME
Known half-life of a selection of molecules

- molecule: "O=C1OC(OP(=O)(Cc2cccc3ccccc23)OC2OC(=O)c3c(Cl)ccc(Cl)c32)c2c(Cl)ccc(Cl)c21 (centres undefined)"
  unitOfMeasure: "min"
  half-life: 0.1
- molecule: "COc1cc2c(c(OC)c1OC)C(=O)OC2OP(=O)(Cc1cccc2ccccc12)OC1OC(=O)c2c1cc(OC)c(OC)c2OC (centres undefined)"
  unitOfMeasure: "min"
  half-life: 5
- molecule: "CCOc1cccc2c1C(=O)OC2OP(=O)(Cc1cccc2ccccc12)OC1OC(=O)c2c(OCC)cccc21 (centres undefined)"
  unitOfMeasure: "min"
  half-life: 2
- molecule: "COc1cccc2c1C(=O)OC2OP(=O)(Cc1cccc2ccccc12)OC1OC(=O)c2c(OC)cccc21 (centres undefined)"
  unitOfMeasure: "min"
  half-life: 2
